These data points were gathered from patent US20090018134A1.

# experimental system: mTOR (Homo sapiens, UniProt P42345)
# Construct: FLAG; made in house
# Sequence (P42345 1362-2549): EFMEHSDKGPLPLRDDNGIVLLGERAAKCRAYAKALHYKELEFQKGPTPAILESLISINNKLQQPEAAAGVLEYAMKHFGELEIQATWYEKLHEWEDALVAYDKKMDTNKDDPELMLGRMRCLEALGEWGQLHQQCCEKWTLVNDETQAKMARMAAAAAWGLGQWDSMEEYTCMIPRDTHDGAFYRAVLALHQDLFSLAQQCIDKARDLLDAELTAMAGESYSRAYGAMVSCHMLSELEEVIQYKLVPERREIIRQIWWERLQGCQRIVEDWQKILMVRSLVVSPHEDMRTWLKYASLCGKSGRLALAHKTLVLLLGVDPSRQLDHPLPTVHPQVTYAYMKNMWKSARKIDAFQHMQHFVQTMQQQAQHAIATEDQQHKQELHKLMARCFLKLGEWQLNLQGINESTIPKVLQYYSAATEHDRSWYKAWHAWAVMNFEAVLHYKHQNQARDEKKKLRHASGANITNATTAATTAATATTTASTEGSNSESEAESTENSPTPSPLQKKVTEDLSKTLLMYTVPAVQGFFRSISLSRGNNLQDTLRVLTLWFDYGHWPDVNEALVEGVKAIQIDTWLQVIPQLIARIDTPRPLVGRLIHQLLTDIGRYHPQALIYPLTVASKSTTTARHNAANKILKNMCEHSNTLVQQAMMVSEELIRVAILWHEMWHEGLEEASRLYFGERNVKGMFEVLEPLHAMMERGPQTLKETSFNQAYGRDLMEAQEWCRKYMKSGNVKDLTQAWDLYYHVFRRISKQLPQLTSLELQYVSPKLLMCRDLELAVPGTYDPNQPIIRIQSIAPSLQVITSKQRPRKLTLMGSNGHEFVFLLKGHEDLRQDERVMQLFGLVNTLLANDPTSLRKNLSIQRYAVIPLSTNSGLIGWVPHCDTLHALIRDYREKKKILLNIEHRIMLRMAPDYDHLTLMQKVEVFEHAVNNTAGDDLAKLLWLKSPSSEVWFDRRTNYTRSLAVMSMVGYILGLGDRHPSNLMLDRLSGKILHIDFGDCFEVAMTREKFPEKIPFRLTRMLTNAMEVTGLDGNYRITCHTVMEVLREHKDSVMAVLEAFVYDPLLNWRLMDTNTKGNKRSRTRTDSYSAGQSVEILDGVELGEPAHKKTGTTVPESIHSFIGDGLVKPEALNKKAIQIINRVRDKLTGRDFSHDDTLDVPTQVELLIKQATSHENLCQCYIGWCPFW
# procedure details: In Vitro mTOR Kinase Assay (Echo), Test (a)(ii)
# Format: biochemical
# test settings: table of enzyme assay Test (a)(ii); read-out: Test (a)(ii) IC50
reported property: pIC50
Numbers only, as −log10 of the molar value.

Before answering, review these 5 worked examples.
[[record]]
compound = "C[C@H]1COCCN1c1cc(C2(S(=O)(=O)c3ccc(F)c(F)c3)CC2)nc(-c2ccc(NC(=O)NC3CC3)cc2)n1 [Example 64i]"
experimental_system = "mTOR (Homo sapiens, UniProt P42345)"
quantitative_result = 8.87

[[record]]
compound = "C[C@H]1COCCN1c1cc(C2(S(=O)(=O)c3cc(F)cc(F)c3)CCN(Cc3ccccc3)CC2)nc(-c2ccc(NC(=O)NC3CC3)cc2)n1 [Example 22]"
experimental_system = "mTOR (Homo sapiens, UniProt P42345)"
quantitative_result = 6.30

[[record]]
compound = "CCS(=O)(=O)C1(c2cc(N3CCOC[C@@H]3C)nc(-c3ccc(NC(=O)NCCF)cc3)n2)CC1 [Example 36ef]"
experimental_system = "mTOR (Homo sapiens, UniProt P42345)"
quantitative_result = 8.08

[[record]]
compound = "C[C@H]1COCCN1c1cc(C2(S(=O)(=O)c3ccccn3)CC2)nc(-c2ccc(NC(=O)Nc3ccon3)cc2)n1 [Example 64ag]"
experimental_system = "mTOR (Homo sapiens, UniProt P42345)"
quantitative_result = 8.55

[[record]]
compound = "CS(=O)(=O)C1(c2cc(N3CCOCC3)nc(-c3ccc(NC(=O)NC4CCC4)cc3)n2)CC1 [Example 12c]"
experimental_system = "mTOR (Homo sapiens, UniProt P42345)"
quantitative_result = 8.12


Could you tell me pIC50 for each of these compounds? They are listed below.
1. C[C@H]1COCCN1c1cc(C2(S(=O)(=O)CCCO)CC2)nc(-c2ccc(NC(=O)NC(C)(C)CO)cc2)n1 [Example 31m]
2. Cc1nn(C)cc1S(=O)(=O)C1(c2cc(N3CCOC[C@@H]3C)nc(-c3ccc(NC(=O)NC4CC4)cc3)n2)CC1 [Example 55a]
3. C[C@H]1COCCN1c1cc(C2(S(=O)(=O)C3CC3)CCC2)nc(-c2ccc(NC(=O)NCc3ncc[nH]3)cc2)n1 [Example 36i]
4. O=C(Nc1ccc(-c2nc(N3CCOCC3)cc(C3(C(=O)NC4CC4)CC3)n2)cc1)NC1CC1 [Example 33b]
5. O=C(Nc1ccc(-c2nc(N3CCOCC3)cc(C3(S(=O)(=O)c4ccccn4)CC3)n2)cc1)NC1CC1 [Example 56]

**A:**
1. 8.23
2. 7.67
3. 7.29
4. 7.92
5. 8.64

Could you tell me pIC50 for each of these compounds? They are listed below.
1. CNC(=O)Nc1ccc(-c2nc(N3CCOCC3)cc(C3(S(=O)(=O)c4ccc(F)cc4)CC3)n2)cc1 [Example 36ap]
2. C[C@H]1COCCN1c1cc(C2(S(C)(=O)=O)CCOCC2)nc(-c2ccc(NC(=O)NCCO)cc2)n1 [Example 23c]
3. C[C@H](CO)NC(=O)Nc1ccc(-c2nc(N3CCOC[C@@H]3C)cc(C3(S(=O)(=O)c4ccncc4)CCC3)n2)cc1 [Example 83b]
4. C[C@H]1COCCN1c1cc(C2(S(=O)(=O)c3ccc(NCCO)c(Cl)c3)CC2)nc(-c2ccc(NC(=O)NCCO)cc2)n1 [Example 95i]
5. C[C@H]1COCCN1c1cc(C2(S(=O)(=O)CCCO)CC2)nc(-c2ccc(NC(=O)NC(C)(C)C)cc2)n1 [Example 36cn]

**A:**
7.81
9.08
7.94
8.32
7.07

---

# experimental system: mTOR (Homo sapiens, UniProt P42345)
# Construct: FLAG; made in house
# procedure details: In Vitro mTOR Kinase Assay (Echo), Test (a)(ii)
# Type: biochemical
# test settings: table of enzyme assay Test (a)(ii); read-out: Test (a)(ii) IC50
# Excerpt: (a)(ii) In Vitro mTOR Kinase Assay (Echo) The assay used AlphaScreen technology (Gray et al., Analytical Biochemistry, 2003, 313: 234-245) to determine the ability of test compounds to inhibit phosphorylation by recombinant mTOR. A C-terminal truncation of mTOR encompassing amino acid residues 1362 to 2549 of mTOR (EMBL Accession No. L34075) was stably expressed as a FLAG-tagged fusion in HEK293 cells as described by Vilella-Bach et al., Journal of Biochemistry, 1999, 274, 4266-4272. […]
reported property: IC50 (nM)
Numbers only, in nM.

Before answering, review these 6 worked examples.
[[record]]
compound = "C[C@H]1COCCN1c1cc(C2(S(=O)(=O)C3CC3)CC2)nc(-c2cnc(NC(=O)NC3CC3)nc2)n1 [Example 14w]"
quantitative_result = 208

[[record]]
compound = "C[C@H]1COCCN1c1cc(C2(S(=O)(=O)c3ccc(F)cc3F)CC2)nc(-c2ccc(NC(=O)Nc3cnn(C)c3)cc2)n1 [Example 57f]"
quantitative_result = 10.6

[[record]]
compound = "CC[C@H]1COCCN1c1cc(C2(S(=O)(=O)c3ccccc3)CC2)nc(-c2ccc(NC(=O)NCC3(O)CC3)cc2)n1 [Example 74i]"
quantitative_result = 9.25

[[record]]
compound = "C[C@H]1COCCN1C(=O)C1(c2cc(N3CCOCC3)nc(-c3ccc(NC(=O)NCCO)cc3)n2)CC1 [Example 34a]"
quantitative_result = 38.7

[[record]]
compound = "CCNC(=O)Nc1ccc(-c2nc(N3CCOC[C@@H]3C)cc(C3(S(=O)(=O)c4ccccc4Cl)CC3)n2)cc1 [Example 76b]"
quantitative_result = 7.19

[[record]]
compound = "Cc1csc(S(=O)(=O)C2(c3cc(N4CCOC[C@@H]4C)nc(-c4ccc(NC(=O)NC(C)(C)CO)cc4)n3)CCC2)n1 [Example 98a]"
quantitative_result = 11


Could you tell me IC50 for each of these compounds? They are listed below.
1. C[C@H]1COCCN1c1cc(C2(S(=O)(=O)c3ccccc3)CCOCC2)nc(-c2ccc(NC(=O)NC3CC3)cc2)n1 [Example 36da]
2. Cc1ccc(S(=O)(=O)C2(c3cc(N4CCOC[C@@H]4C)nc(-c4ccc(NC(=O)NCCO)cc4)n3)CC2)cc1 [Example 95n]
3. C[C@H]1COCCN1c1cc(C2(S(=O)(=O)c3ccccc3)CCC2)nc(-c2ccc(NC(=O)NC3CC3)cc2)n1 [Example 36bs]

**A:**
1. 33.1
2. 0.668
3. 2.64

Could you tell me IC50 for each of these compounds? They are listed below.
1. C[C@H]1COCCN1c1cc(C2(S(=O)(=O)C3CC3)CCOCC2)nc(-c2ccc(NC(=O)NCCN(C)C)cc2)n1 [Example 23g]
2. CCNC(=O)Nc1ccc(-c2nc(N3[C@H](C)COC[C@@H]3C)cc(C3(S(=O)(=O)c4ccccc4)CC3)n2)cc1

**A:**
[1210, 7.44]

---

# experimental system: mTOR (Homo sapiens)
# Construct: FLAG; made in house
# procedure details: In Vitro mTOR Kinase Assay (Echo), Test (a)(ii)
# Format: biochemical
# test settings: table of enzyme assay Test (a)(ii); read-out: Test (a)(ii) IC50
Record form. Attribute: pIC50. Fill in for each entry.
Answers are plain numbers, as −log10 of the molar value.

Before answering, review these 5 worked examples.
[[record]]
compound = "C[C@H]1COCCN1c1cc(C2(S(=O)(=O)c3cc(F)cc(F)c3)CCNCC2)nc(-c2ccc(NC(=O)NC3CC3)cc2)n1 [Example 30]"
quantitative_result = 7.60

[[record]]
compound = "CC(C)CNC(=O)Nc1ccc(-c2nc(N3CCOC[C@@H]3C)cc(C3(S(=O)(=O)c4ccc(Cl)cc4)CC3)n2)cc1 [Example 27c]"
quantitative_result = 7.85

[[record]]
compound = "Cc1nn(C)cc1S(=O)(=O)C1(c2cc(N3CCOC[C@@H]3C)nc(-c3ccc(NC(=O)NCC(F)F)cc3)n2)CC1 [Example 55d]"
quantitative_result = 7.45

[[record]]
compound = "C[C@H]1COCCN1c1cc(C2(S(=O)(=O)c3ccc(F)cc3)CC2)nc(-c2ccc(NC(=O)NCc3ncc[nH]3)cc2)n1 [Example 36aa]"
quantitative_result = 7.13

[[record]]
compound = "CNC(=O)Nc1ccc(-c2nc(N3CCOC[C@@H]3C)cc(C3(S(C)(=O)=O)CC3)n2)cc1F [Example 52a]"
quantitative_result = 7.99


Could you tell me pIC50 for each of these compounds? They are listed below.
1. Cc1csc(S(=O)(=O)C2(c3cc(N4CCOCC4)nc(-c4ccc(NC(=O)NC5CC5)cc4)n3)CC2)n1 [Example 42]
2. C[C@H]1COCCN1c1cc(C2(S(=O)(=O)c3ccccc3Cl)CC2)nc(-c2ccc(NC(=O)NCC(F)F)cc2)n1 [Example 76d]

**A:**
1: 9.15; 2: 8.03
